Recorded values, source patent US7585859B2.

Known IC50 of a selection of compounds
assay target: PDE4B: The catalytic domain of human PDE4B from S152-S528 (Homo sapiens, UniProt Q07343)
Construct: His6 (N); thrombin cleavage site (N); made in house; host or cells: E. coli
Sequence (Q07343 with tags, fused parts or gaps): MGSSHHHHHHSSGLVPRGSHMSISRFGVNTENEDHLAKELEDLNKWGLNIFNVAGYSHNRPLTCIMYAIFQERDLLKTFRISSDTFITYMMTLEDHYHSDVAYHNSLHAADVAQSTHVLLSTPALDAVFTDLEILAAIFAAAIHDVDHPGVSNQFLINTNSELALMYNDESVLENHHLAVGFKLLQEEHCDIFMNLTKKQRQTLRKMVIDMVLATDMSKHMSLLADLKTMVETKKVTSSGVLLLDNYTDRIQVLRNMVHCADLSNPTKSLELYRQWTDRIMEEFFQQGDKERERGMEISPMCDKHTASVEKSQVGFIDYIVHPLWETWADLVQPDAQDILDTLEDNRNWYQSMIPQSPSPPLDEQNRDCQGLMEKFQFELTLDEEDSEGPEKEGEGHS
assay details: PDE4 IC50 determination by Scintillation Proximity Assay, PDE4B
Type: biochemical
recorded conditions: first part of Table 2B (2-1 to 2-22); read-out: IC 50 vs. indicated assay PDE4B

Worked cases, answers included:
>>> measured("Cc1c(C(=O)c2sc(NC3CCCC3)nc2N)cnn1-c1ccccc1 [Compound 2-21]")
"< 10 µM"
>>> measured("CCOC(=O)c1cc(C(=O)c2sc(Nc3ccc(Oc4ccccc4)cc3)nc2N)on1 [Compound 2-3]")
"> 10 µM"

Below: the item to evaluate.
[ask] // lookup IC50 for Nc1nc(NC2CCCC2)sc1C(=O)c1ccc(-c2ccccn2)s1 [Compound 2-17]
[reply] < 10 µM

* * *

Known pIC50 of a selection of compounds
assay target: PDE4D (Homo sapiens)
Construct: PDE4D: The catalytic domain of human PDE4B from S3 16-V692; His6 (N); thrombin cleavage site (N); made in house; host or cells: E. coli
assay details: PDE4 IC50 determination by Scintillation Proximity Assay, PDE4D
Assay type: biochemical
recorded conditions: Table 1B, Formula I compounds; read-out: IC50 PDE4D
pIC50: −log10 of the molar value.

>>> measured("Cc1c(C(=O)c2sc(NCCN3CCCCC3)c(C#N)c2N)cnn1-c1ccccc1 [Compound 1-51]")
"< 5.00"
>>> measured("COc1ccc(CNc2sc(C(=O)c3ccc(C)cc3C)c(N)c2C#N)cc1OC [Compound 1-162]")
"> 5.00"
>>> measured("N#Cc1c(NC2CCOC2=O)sc(C(=O)c2ccccn2)c1N (centres unmarked) [Compound 1-152]")
"< 5.00"
>>> measured("Cc1ccc(C(=O)c2sc(Nc3ccccc3)c(C#N)c2N)cc1 [Compound 1-29]")
"> 5.00"

Below: the item to evaluate.
[ask] // lookup pIC50 for N#Cc1c(NCC2CCCO2)sc(C(=O)c2ccc(-c3ccccn3)s2)c1N (centres unmarked) [Compound 1-80]
[reply] > 5.00

* * *

assay target: PDE4B: The catalytic domain of human PDE4B from S152-S528 (Homo sapiens)
Construct: His6 (N); thrombin cleavage site (N); made in house; host or cells: E. coli
assay details: PDE4 IC50 determination by Scintillation Proximity Assay, PDE4B
Format: biochemical
recorded conditions: Table 1B, Formula I compounds; read-out: IC50 PDE4B
pIC50: −log10 of the molar value.
Known pIC50 of a selection of compounds

>>> measured("N#Cc1c(NC2CCCC2)sc(C(=O)c2nc3ccccc3s2)c1N")
"> 5.00"
>>> measured("COc1ccc(Nc2sc(C(=O)c3ccc(-c4ccccn4)s3)c(N)c2C#N)cc1")
"> 5.00"
>>> measured("CCOC(=O)c1c(Nc2c(C)cccc2C)sc(C(=O)c2ccc(Br)cc2)c1N")
"< 5.00"
>>> measured("CC(C)C(C)Nc1sc(C(=O)c2cc(-c3ccc(Cl)c(Cl)c3)no2)c(N)c1C#N (centres unmarked)")
"> 5.00"

Below: the item to evaluate.
[ask] // lookup pIC50 for CCc1ccccc1Nc1sc(C(=O)c2cnn(-c3ccccc3)c2C)c(N)c1C#N
[reply] > 5.00

* * *

assay target: PDE4D (Homo sapiens, UniProt Q08499)
Construct: PDE4D: The catalytic domain of human PDE4B from S3 16-V692; His6 (N); thrombin cleavage site (N); made in house; host or cells: E. coli
Sequence (Q08499 380-756): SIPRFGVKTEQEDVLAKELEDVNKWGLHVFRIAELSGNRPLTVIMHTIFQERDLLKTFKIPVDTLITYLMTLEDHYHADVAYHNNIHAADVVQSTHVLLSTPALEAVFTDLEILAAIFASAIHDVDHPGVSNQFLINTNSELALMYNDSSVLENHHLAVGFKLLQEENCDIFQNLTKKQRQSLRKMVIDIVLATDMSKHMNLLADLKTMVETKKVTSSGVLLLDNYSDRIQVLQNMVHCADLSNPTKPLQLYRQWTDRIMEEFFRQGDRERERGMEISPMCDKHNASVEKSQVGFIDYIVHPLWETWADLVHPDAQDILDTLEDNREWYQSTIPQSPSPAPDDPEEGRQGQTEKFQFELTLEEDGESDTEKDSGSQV
assay details: PDE4 IC50 determination by Scintillation Proximity Assay, PDE4D
Type: biochemical
recorded conditions: Table 1B, Formula I compounds; read-out: IC50 PDE4D
pIC50: −log10 of the molar value.
measurement name: pIC50

Worked cases, answers included:
>>> measured("N#Cc1c(NC2CCCC2)sc(C(=O)c2cc(-c3ccccc3)no2)c1N")
"> 5.00"
>>> measured("Cc1ccccc1C(=O)Nc1sc(C(=O)c2ccccn2)c(N)c1C#N")
"< 5.00"
>>> measured("N#Cc1c(Nc2ccc(C(=O)NC3CCOC3=O)cc2)sc(C(=O)c2csc3ccccc23)c1N (stereo not shown)")
"> 5.00"

Below: the item to evaluate.
[ask] // lookup pIC50 for N#Cc1c(NCc2cccc(Cl)c2)sc(C(=O)c2cc(-c3ccccc3)no2)c1N
[reply] < 5.00

* * *

assay target: PDE4B: The catalytic domain of human PDE4B from S152-S528 (Homo sapiens, UniProt Q07343)
Construct: His6 (N); thrombin cleavage site (N); made in house; host or cells: E. coli
assay details: PDE4 IC50 determination by Scintillation Proximity Assay, PDE4B
Format: biochemical
recorded conditions: Table 1B, Formula I compounds; read-out: IC50 PDE4B
pIC50: −log10 of the molar value.
measurement name: pIC50

>>> measured("N#Cc1c(Nc2ccccc2)sc(C(=O)c2cc(-c3ccccc3)no2)c1N")
"> 5.00"
>>> measured("N#Cc1c(Nc2ccc(Oc3ccccc3)cc2)sc(C(=O)c2cc(-c3ccccc3)no2)c1N")
"< 5.00"
>>> measured("CCOC(=O)C(=O)c1sc(NC2CCCC2)c(C#N)c1N")
"> 5.00"
>>> measured("Cc1ccc(C(=O)c2sc(NCCN3CCCCC3)c(C#N)c2N)c(C)c1")
"< 5.00"
>>> measured("CCOC(=O)c1c(Nc2ccccc2F)sc(C(=O)c2ccc(Cl)cc2)c1N")
"> 5.00"
>>> measured("N#Cc1c(NC2CCCC2)sc(C(=O)c2csc3ccccc23)c1N")
"> 5.00"
>>> measured("CSc1cccc(Nc2sc(C(=O)c3ccccc3Cl)c(N)c2C#N)c1")
"> 5.00"
>>> measured("N#Cc1cccc(Nc2sc(C(=O)c3ccc(-c4ccccn4)s3)c(N)c2C#N)c1")
"> 5.00"

[ask] // lookup pIC50 for COc1ccc(Nc2sc(C(=O)c3ccc(C)cc3C)c(N)c2C#N)cc1
[reply] > 5.00

[ask] Subsequent entry: COC(=O)C(CCSC)Nc1sc(C(=O)c2coc3ccccc23)c(N)c1C#N (stereo not shown)
[reply] > 5.00

[ask] Subsequent entry: CCOC(=O)c1c(NC2CCCC2)sc(C(=O)c2ccc(OC)cc2)c1N
[reply] > 5.00

[ask] Subsequent entry: CC(=O)C1=C(C)Nc2sc(C(=O)c3cccc([N+](=O)[O-])c3)c(N)c2C1c1cccnc1 (stereo not shown)
[reply] > 5.00

[ask] Subsequent entry: N#Cc1c(Nc2ccc3c(c2)CCC3)sc(C(=O)c2ccccn2)c1N
[reply] > 5.00

[ask] Subsequent entry: Cc1c(C(=O)c2sc(Nc3ccccc3F)c(C#N)c2N)cnn1-c1ccccc1
[reply] > 5.00

[ask] Subsequent entry: Cc1ccccc1C(=O)Nc1sc(C(=O)c2ccccn2)c(N)c1C#N
[reply] > 5.00

[ask] Subsequent entry: Cc1c(C(=O)c2sc(NC3CCOC3=O)c(C#N)c2N)cnn1-c1ccccc1 (stereo not shown)
[reply] > 5.00

[ask] Subsequent entry: CCOC(=O)c1cc(C(=O)c2sc(NC(=O)c3ccccc3C)c(C#N)c2N)on1
[reply] < 5.00

[ask] Subsequent entry: Cc1ccc(C(=O)c2sc(Nc3ccc(C(=O)NC4CCOC4=O)cc3)c(C#N)c2N)c(C)c1 (stereo not shown)
[reply] > 5.00

[ask] Subsequent entry: COc1ccc(Nc2sc(C(=O)c3c(-c4ccccc4)noc3C)c(N)c2C#N)cc1
[reply] > 5.00

[ask] Subsequent entry: N#Cc1c(NC2CCOC2=O)sc(C(=O)c2ccc(-c3ccccn3)s2)c1N (stereo not shown)
[reply] > 5.00

[ask] Subsequent entry: COc1ccc(C(=O)c2sc(Nc3ccc4c(c3)CCC4)c(C#N)c2N)c(OC)c1
[reply] > 5.00

[ask] Subsequent entry: N#Cc1c(NC2CCCC2)sc(C(=O)c2ccc(Cl)cc2)c1N
[reply] > 5.00

[ask] Subsequent entry: N#Cc1c(Nc2ccco2)sc(C(=O)c2cc(-c3ccccc3)no2)c1N
[reply] < 5.00

[ask] Subsequent entry: COc1cccc(C(=O)c2sc(Nc3ccccc3)c(C#N)c2N)c1
[reply] > 5.00

[ask] Subsequent entry: N#Cc1cccc(Nc2sc(C(=O)c3ccccn3)c(N)c2C#N)c1
[reply] > 5.00

[ask] Subsequent entry: CCOC(=O)c1cc(C(=O)c2sc(Nc3cccc(SC)c3)c(C#N)c2N)on1
[reply] > 5.00

[ask] Subsequent entry: N#Cc1c(Nc2ccc(Cl)c(C(F)(F)F)c2)sc(C(=O)c2ccccc2)c1N
[reply] > 5.00

[ask] Subsequent entry: COC(=O)c1ccccc1Nc1sc(C(=O)c2c(-c3ccccc3)noc2C)c(N)c1C#N
[reply] > 5.00

[ask] Subsequent entry: CC(C)CNc1sc(C(=O)c2cc(-c3ccc(Cl)c(Cl)c3)no2)c(N)c1C#N
[reply] < 5.00

[ask] Subsequent entry: N#Cc1c(NCCN2CCCCC2)sc(C(=O)c2cc(-c3ccc(Cl)cc3Cl)no2)c1N
[reply] < 5.00

[ask] Subsequent entry: CCOC(=O)c1c(NC2CCCC2)sc(C(=O)c2cc(-c3ccccc3)no2)c1N
[reply] < 5.00
